test: reversal of MRP1-mediated doxorubicin resistance, pilot screen, H69AR cells, doxorubicin co-treatment (AID 601); conditions: H69AR cells + 2 uM doxorubicin, CellTiter-Glo, 72 h; measured here: viability with 2 uM doxorubicin; at 10 µM; stronger effect = lower value
property: viability (%)

> print(dat)
                                    compound   property  unit.symbol  number
 1     COc1ccc(-c2cc3nc4n(c(=O)c3s2)CCC4)cc1  viability            %    88.9
 2  CCOC(=O)N1CCN(C(=O)C2CC(=O)N(Cc3ccc(OC)cc3)C2)CC1 (stereo unspecified)  viability            %    96.8
 3  CCOC(=O)c1ccc(NC(=O)CSc2n[nH]c(-c3ccncc3)n2)cc1  viability            %    89.4
 4  O=C(CSc1nnc(-c2ccc(Br)o2)n1Cc1ccccc1)c1ccccc1F  viability            %    75.9
 5     O=C(Nc1ccc2oc(-c3ccncc3)nc2c1)c1cccs1  viability            %    78.9
 6  CCOC(=O)C1CCN(C(=O)CSc2cc(=O)n(CC)c3ccccc23)CC1  viability            %      82
 7  C=CCSC1=C(C#N)C(c2ccccc2)CC(=O)N1 (stereo unspecified)  viability            %    97.4
 8  Cc1nnc2sc(-c3cccc(NC(=O)c4cccnc4)c3)nn12  viability            %    96.7
 9  COc1ccc(C2CC(c3ccc(Cl)cc3)Nc3nc(NC(=O)c4ccco4)nn32)cc1 (stereo unspecified)  viability            %    90.6
10                CCN(CC)CCNC(=O)c1ccc(N)cc1  viability            %    98.8
11  NS(=O)(=O)c1cc2c(cc1Cl)NC(C(Cl)Cl)NS2(=O)=O (stereo unspecified)  viability            %     104

###

test: viability gain of MRP-1-high H69AR cells under doxorubicin, pilot screen, MRP-1 activator project, CellTiter-Glo, duplicate (AID 807); details: H69AR viability with doxorubicin, CellTiter-Glo luminescence; at 10 µM; stronger effect = higher value;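 further: compound pretreatment 18-22 h then 72 h combined with doxorubicin; 0% = doxorubicin alone and 100% = vehicle without doxorubicin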
The molecules listed here are annotated with their viability increase.
property: viability increase (%)

> print(dat)
                                    molecule            property  number
 1  Cc1c(Cl)cccc1NC(=O)CCN1CCCC(C)C1 (configuration not stated)  viability increase   -3.58
 2  COc1ccc(N2C(=O)C3CCCN3C2c2ccc(C)cc2)cc1 (configuration not stated)  viability increase   -1.95
 3  Cc1c(C(=O)NCCC2=CCCCC2)oc2ccc(S(=O)(=O)N3CCOCC3)cc12  viability increase   -0.96
 4  CCOC(=O)Cc1csc(NC(=O)CN2C(=O)c3ccccc3S2(=O)=O)n1  viability increase    -2.2
 5       Cc1ccc(C)c(SCC(=O)OCC(=O)c2ccco2)c1  viability increase   -3.35
 6  CCN(CC)CCN1C(=O)C(=O)/C(=C(/O)c2ccc(C)cc2)C1c1ccncc1 (configuration not stated)  viability increase    0.64
 7          O=C(N1CCOCC1)N1CCN(c2ccccc2F)CC1  viability increase   -2.64
 8  Cc1ccc(C2CC(c3ccc(F)cc3)Nc3nc(N)nn32)cc1 (configuration not stated)  viability increase   -3.44
 9  CC1=CS/C(=C(/C#N)C(=O)N2CCOCC2)N1c1ccccc1  viability increase   -1.17
10       Oc1ccc(Br)cc1-c1nc2cnccn2c1NC1CCCC1  viability increase   -7.32
11                O=C(NCCC1=CCCCC1)NC1CCCCC1  viability increase    -0.3
12         CCCCn1c(NC(=O)c2ccccc2)nc2ccccc21  viability increase   -3.95
13  O=C1c2ccccc2N2C(=O)c3ccccc3C2N1Cc1ccco1 (configuration not stated)  viability increase   -4.74
14              COC(=O)C1=C(C)Nc2ccc(C)cc2S1  viability increase   -2.27
15                CCOc1ccc(N2CC(=O)SC2=S)cc1  viability increase    1.09
16  CCN1CCCC1CNC(=O)Cn1cnc2sc(C)c(S(=O)(=O)N3CCC(C)CC3)c2c1=O (configuration not stated)  viability increase   -4.44
17  O=C(c1ccc(CN2CCOCC2)cc1)N1CCC(Cc2ccccc2)CC1  viability increase   -0.71
18             N#Cc1ccccc1N=C1CCCN1Cc1ccccc1  viability increase    0.25
19        CCCCCn1c(CNC(=O)c2cccs2)nc2ccccc21  viability increase   -2.58
20            N#CCn1c(C2CCCCC2)nc2ccccc2c1=O  viability increase   -4.23
21  Cc1nn(CC(=O)Nc2cccnc2N2CCOCC2)c(=O)c2ccccc12  viability increase   -2.18
22  CCCSc1nnc2c(n1)OC(c1cccn1C)N(C(C)=O)c1ccccc1-2 (configuration not stated)  viability increase   -2.06
23  O=C(CCn1c(=O)[nH]c2ccsc2c1=O)N1CCc2ccccc2C1  viability increase   -0.54
24         CC(C)Sc1nc(N)c2c3c(sc2n1)CN(C)CC3  viability increase   -3.04
25  O=C(NCC1CCCO1)c1ccc2c(c1)C(=O)N(C1CCCCC1)C2=O (configuration not stated)  viability increase    1.19
26  CCOC(=O)C1CCCN(C(=O)N2CCOCC2)C1 (configuration not stated)  viability increase   -0.82
27  CC1CCCCN1CCn1cnc2c([nH]c3ccccc32)c1=O (configuration not stated)  viability increase   -4.17
28  COc1ccc(C)cc1NC(=O)CN(c1ccccc1)S(C)(=O)=O  viability increase   -1.58
29  COCCCN(C(=O)Nc1ccc(C)c(C)c1)C(C)c1ccccn1 (configuration not stated)  viability increase   -1.65
30          CCN(c1ccccc1)c1cc(C)nc2nc(C)nn12  viability increase   -3.84
31  Clc1ccc(-n2ncc3c(NCC4CCCO4)ncnc32)cc1 (configuration not stated)  viability increase   -5.71
32  CCOC(=O)C1=C(N)OC2=C(C(=O)CCC2)C1c1ccccc1OCC (configuration not stated)  viability increase   -0.08
33  CCN(CC)c1cc(C)c2cc(NC(=O)CNC(C)=O)ccc2n1  viability increase   -2.37
34  Cc1cccc(N=C2NC(=O)/C(=C3/C(=O)N(C)c4ccccc43)S2)c1C  viability increase   -7.01
35  CC(C)CC(NC(=O)C1CCC(C)CC1)C(=O)Nc1ccccn1 (configuration not stated)  viability increase   -1.42
36             CCCc1cc(=O)oc2cc3occ(C)c3cc12  viability increase   -2.52
37  COc1ccc(OC)c(C2CC(=O)N3CN(c4cccc(Cl)c4)CSC3=C2C#N)c1 (configuration not stated)  viability increase   -2.23
38    CCc1nnc(NC(=O)CSc2nccn2-c2cccc(C)c2)s1  viability increase    0.02
39  O=C(NCCN1C(=O)C2C3C=CC(C3)C2C1=O)Nc1ccccc1O (configuration not stated)  viability increase   -1.45
40          COc1ccc(C(=O)c2cnc(C(C)C)n2C)cc1  viability increase    2.12
41  Cc1ccc(-n2c(SCC(N)=O)nc3c([nH]c4ccccc43)c2=O)cc1  viability increase   -2.14
42  CCc1ccc(NC(=O)CSc2nnc(Cn3c(=O)sc4ccccc43)n2C)cc1  viability increase   -1.98
43            CCN(CC)S(=O)(=O)c1cc(Br)ccc1OC  viability increase   -4.03
44  CCOC(=O)c1cnc2ccc(Br)cc2c1NCC(C)O (configuration not stated)  viability increase   -4.28
45         O=C(CNC(=O)c1ccco1)OCc1ccc(Cl)cc1  viability increase   -2.32
46  Cc1ccsc1C1C2=C(CC(C)(C)CC2=O)Nc2ncnn21 (configuration not stated)  viability increase   -4.49
47  Cc1c(C(=O)NCC2COc3ccccc3O2)oc2ccc(S(=O)(=O)N3CCOCC3)cc12 (configuration not stated)  viability increase   -2.13
